# Tested target: UniProtKB P30518
# Sequence (P30518 whole entry): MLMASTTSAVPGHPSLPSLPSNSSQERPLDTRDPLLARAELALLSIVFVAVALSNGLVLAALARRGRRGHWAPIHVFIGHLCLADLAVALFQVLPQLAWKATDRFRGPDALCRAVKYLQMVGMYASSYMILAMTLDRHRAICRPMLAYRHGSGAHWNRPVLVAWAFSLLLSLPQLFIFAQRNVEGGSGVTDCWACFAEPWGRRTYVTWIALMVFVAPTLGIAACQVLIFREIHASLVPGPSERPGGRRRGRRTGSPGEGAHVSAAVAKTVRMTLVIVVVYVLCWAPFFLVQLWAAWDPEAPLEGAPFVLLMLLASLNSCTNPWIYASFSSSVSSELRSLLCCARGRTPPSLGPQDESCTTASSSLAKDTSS
# Protocol description: Antagonist activity at human vasopressin V2 receptor by cell based beta-lactamase reporter gene assay
pKi: −log10 of the molar value.
Quantity measured: pKi

# Smi, Result
rows = [
    ("CCOc1ccc(-c2nnc(COC)n2-c2ccc(OC)nc2)cc1Cl", "< 5.00"),
    ("CCOc1ccc(-c2nnc(COCCOC)n2-c2ccc(OC)nc2)cc1C", 5.19),
    ("CCOc1ccc(-c2nnc(COC)n2-c2ccc(OC)nc2)cc1C(F)(F)F", "< 5.00"),
    ("CCOCc1nnc(-c2ccc(OCC)c(C)c2)n1-c1ccc(OC)nc1", "< 5.00"),
    ("CCOc1ccc(-c2nnc(Cn3nccn3)n2-c2ccc(OC)nc2)cc1C", 6.00),
    ("CCOc1ccc(-c2nnc(COC)n2-c2ccc(OC)nc2)cc1C", "< 5.00"),
    ("CCOc1ccc(-c2nnc(C)n2-c2ccc(OC)nc2)cc1C", "< 5.00"),
]

###

# Protocol description: Intrinsic clearance in human liver microsomes
# Format: ADME, Microsome
Quantity measured: microsomal CLint (µL/min/mg)

# Smi, Readout number
data = [
    ("CCOCc1nnc(-c2ccc(OCC)c(C)c2)n1-c1ccc(OC)nc1", 12),
]
